Molecular target: HCV NS5B RdRp genotype 1b (Hepatitis C virus genotype 1b)
Construct: The protein was expressed with an 18 amino acid C-terminal truncation to enhance the solubility
Sequence (Q9WMX2 2420-2992): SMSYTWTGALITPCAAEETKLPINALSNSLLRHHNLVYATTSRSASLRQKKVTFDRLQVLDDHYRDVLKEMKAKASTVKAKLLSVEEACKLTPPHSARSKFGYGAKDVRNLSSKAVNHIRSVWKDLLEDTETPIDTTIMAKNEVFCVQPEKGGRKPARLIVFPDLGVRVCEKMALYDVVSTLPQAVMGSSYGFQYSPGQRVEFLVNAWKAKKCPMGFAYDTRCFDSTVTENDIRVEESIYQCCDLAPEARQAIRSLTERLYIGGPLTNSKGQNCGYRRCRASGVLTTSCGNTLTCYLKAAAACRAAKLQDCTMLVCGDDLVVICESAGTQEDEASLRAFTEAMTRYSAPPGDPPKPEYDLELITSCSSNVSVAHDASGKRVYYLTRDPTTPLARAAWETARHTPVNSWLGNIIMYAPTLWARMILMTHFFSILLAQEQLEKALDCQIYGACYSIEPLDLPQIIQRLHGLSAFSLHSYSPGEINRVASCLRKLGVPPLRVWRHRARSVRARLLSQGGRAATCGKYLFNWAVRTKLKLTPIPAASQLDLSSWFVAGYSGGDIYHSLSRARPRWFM
Assay: HCV NS5B RdRp enzyme assay (preincubation protocol)
Protocol: HCV NS5B RdRp cloning, expression, and purification. The cDNA encoding the NS5B protein of HCV, genotype 1b, was cloned into the pET21a expression vector. The protein was expressed with an 18 amino acid C-terminal truncation to enhance the solubility. […] Standard HCV NS5B RdRp enzyme assay. […] Plates were read on a Packard Top Count NXT after >1 hr incubation at room temperature. […] IC50 values for compounds were determined using seven different [I]. […]
pIC50: −log10 of the molar value.
readoutLabel: pIC50

C[C@@H]1CN(C(=O)C2CCc3c(C(=O)O)ccc4c(C5CCCCC5)c(-c5ccccc5)n2c34)C[C@H](C)O1 (some centres unmarked) : < 6.00
COC(=O)c1ccc2c(C3CCCCC3)c(-c3ccccc3)n3c2c1OCC3 : 5.00 to 6.00
CN(C)S(=O)(=O)NC(=O)c1ccc2c(C3CCCCC3)c(-c3ccccc3)n3c2c1OCC3 : 5.00 to 6.00
COC(=O)c1ccc2c(C3CCCCC3)c(-c3ccccc3)n3c2c1C=CCC3 : < 5.00
CCOC(=O)/C=C/c1ccc(NC(=O)C2(NC(=O)c3ccc4c(C5CCCCC5)c(-c5ccc(OC)cc5)n5c4c3OCC5)CCCC2)cc1 : 6.00 to 7.52
O=C(O)c1ccc2c(C3CCCCC3)c(-c3ccccc3)n3c2c1C=CCC3 : < 6.00
O=C(O)/C=C/c1ccc(NC(=O)C2(NC(=O)c3ccc4c(C5CCCCC5)c(-c5ccccc5)n5c4c3OCC5)CCCC2)cc1 : 6.00 to 7.52

Could you now look at the following compound, please?
Ask | Please report the recorded pIC50 for CCOC(=O)/C=C/c1ccc(NC(=O)C2(NC(=O)c3ccc4c(C5CCCCC5)c(-c5ccccc5)n5c4c3OCC5)CCCC2)cc1 .
Reply | 6.00 to 7.52
